target: PDGF-BB (platelet-derived growth factor BB) (Homo sapiens); experiment: filter; conditions: Bn-dU; Trp-dU17; Heg5; 2'-OMe A3, A11, A21, G24
pKd: −log10 of the molar value.
MEASUREMENT KIND: pKd

Could you share which pKd value was measured for TTACGTTACACGCGTTTATAGCG [4149-8_180] ?
< 8.00

====

Test system: VEGF-121 (Homo sapiens), P15692-9
Sequence: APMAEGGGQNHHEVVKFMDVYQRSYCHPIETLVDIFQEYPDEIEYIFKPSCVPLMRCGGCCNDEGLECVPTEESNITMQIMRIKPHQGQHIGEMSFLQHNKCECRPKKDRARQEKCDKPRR
Experiment: filter
Conditions: as 4867-31_192; PS 3' of 19; 3' inverted dT
MEASUREMENT KIND: Kd (pM)
Answers are plain numbers, in pM.

Form field - read-out: Kd; system: VEGF-121 (Homo sapiens), P15692-9; submitted item: CCGTTCAAGTGCTTGTAGGATTTAAATGG [4867-31_422]
9.5

====

Tested on: VEGF-121 (Homo sapiens), P15692-9
Sequence: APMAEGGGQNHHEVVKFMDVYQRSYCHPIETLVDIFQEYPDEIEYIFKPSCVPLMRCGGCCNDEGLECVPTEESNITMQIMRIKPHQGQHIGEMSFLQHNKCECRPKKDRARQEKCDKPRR
Test: filter
Conditions: as 4867-31_192; PS 3' of 4; 3' inverted dT
MEASUREMENT KIND: pKd
Answers are plain numbers, as −log10 of the molar value.

Look at this sequence and give its reported pKd. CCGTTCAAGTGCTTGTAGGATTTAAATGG [4867-31_412]
10.66

====

target: PDGF-BB (platelet-derived growth factor BB) (Homo sapiens); assay: filter; conditions: PDGF-3Heg-VEGF; NapdU, 2'-OMe
MEASUREMENT KIND: Kd

# lookup: Kd of CGACAGCATGTATGCACATCTCCGTTCAAGTGCTTGTAGGATTTAAATGG [5169-4_102]
0.011 nM

====

System: VEGF-121 (Homo sapiens), P15692-9
Sequence: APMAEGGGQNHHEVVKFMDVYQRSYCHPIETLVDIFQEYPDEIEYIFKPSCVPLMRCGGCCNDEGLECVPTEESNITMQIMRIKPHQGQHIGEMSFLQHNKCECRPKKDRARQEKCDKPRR
Test: filter
Settings: as 4867-31_192; PS 3' of 21; 3' inverted dT
MEASUREMENT KIND: pKd
One number for each entry, as −log10 of the molar value.

Record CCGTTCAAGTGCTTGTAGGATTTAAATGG [4867-31_424] : what is its pKd with VEGF-121 (Homo sapiens), P15692-9?
10.96

====

Tested on: VEGF-121 (Homo sapiens), P15692-9
Sequence: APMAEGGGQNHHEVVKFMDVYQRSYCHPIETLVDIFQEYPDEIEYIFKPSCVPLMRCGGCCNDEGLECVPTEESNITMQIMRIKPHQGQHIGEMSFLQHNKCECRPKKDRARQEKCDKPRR
Test: filter
Conditions: as 4867-31_192; PS 3' of 22 or 23 (printed P1-P2); 3' inverted dT
MEASUREMENT KIND: pKd
Answers are plain numbers, as −log10 of the molar value.

Report pKd for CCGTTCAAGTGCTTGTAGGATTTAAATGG [4867-31_425] please.
10.80
